- MEASURED TARGET: UniProtKB A6N857
- ASSAY DETAILS: Inhibition of LdGSK-3 with Kinase Glo
- Format: biochemical
- CONDITION DESCRIPTION: Table S2; 10 µM
In this section, each of the compounds is paired with its reported % inhibition @ 10µM (initial screening on LdGSK3).
RESULT TYPE: % inhibition @ 10µM (initial screening on LdGSK3) (%)

| COMPOUND | REPORTED VALUE |
| --- | --- |
| CC(C)(C)Nc1nc(Nc2ccc3c(c2)CS(=O)(=O)C3)nc2[nH]ccc12 [Compound 103] | 25.85 |
| c1ccc(Nc2nc3ccccc3[nH]2)nc1 [Compound 40] | 13.50 |
| CCS(=O)(=O)c1cccc(C(=O)Nc2nc(-c3ccccn3)cs2)c1 [Compound 165] | 4.70 |
| O=C(Nc1nc2ccccc2[nH]1)c1ccc2nc[nH]c2c1 [Compound 53] | -1.60 |
| O=C(CSc1nnc(-c2ccc3c(c2)OCO3)o1)N(Cc1ccco1)CC(F)(F)F [Compound 184] | 53.23 |

###

In this section, each of the compounds is paired with its reported % inhibition @ 10µM (initial screening on LdGSK3).
- MEASURED TARGET: LdGSK-3 (Leishmania donovani, UniProt A6N857)
- Sequence (A6N857 entry or part of it): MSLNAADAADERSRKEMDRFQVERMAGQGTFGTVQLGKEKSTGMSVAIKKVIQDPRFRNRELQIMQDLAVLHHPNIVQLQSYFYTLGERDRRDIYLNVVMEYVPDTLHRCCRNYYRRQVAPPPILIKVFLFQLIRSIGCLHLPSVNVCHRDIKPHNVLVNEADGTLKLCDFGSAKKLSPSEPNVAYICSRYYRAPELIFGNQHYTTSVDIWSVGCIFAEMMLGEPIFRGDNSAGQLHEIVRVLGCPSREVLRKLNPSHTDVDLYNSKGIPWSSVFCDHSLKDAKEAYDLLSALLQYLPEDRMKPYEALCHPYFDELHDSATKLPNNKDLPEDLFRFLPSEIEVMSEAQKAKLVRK
- ASSAY DETAILS: Inhibition of LdGSK-3 with Kinase Glo
- Type: biochemical
- CONDITION DESCRIPTION: Table S2; 10 µM
RESULT TYPE: % inhibition @ 10µM (initial screening on LdGSK3) (%)

| COMPOUND | REPORTED VALUE |
| --- | --- |
| Cc1nn(-c2nc(N)nc(-c3ccccn3)n2)c(C)c1Cc1ccccc1 | -0.75 |
| CN(C)c1ccc(N)cc1CN(CC1CCCO1)S(C)(=O)=O (centres unmarked) | 13.95 |
| c1ccc2sc(Nc3nc4ncccc4[nH]3)nc2c1 | 6.55 |
| Cn1nc(C(=O)N2CCc3ccccc32)c2c1CCS(=O)(=O)C2 | 5.20 |
| c1ccc(-c2nc(NC3CCCC3)c3ccccc3n2)nc1 | -0.55 |
| O=C(CN(Cc1ccccn1)Cc1ccccn1)NCc1csc(-c2cccs2)n1.O=C(O)C(F)(F)F | 6.80 |
| CCCn1c(NC(=O)CCn2cc(Br)cn2)nc2ccccc21 | 3.80 |
| Cc1ccc2c(c1)SC(C(=O)Nc1n[nH]c(-c3ccccn3)n1)C2 (centres unmarked) | 3.20 |
| CCCCN(C(=O)c1ccc(NC(=O)C(C)C)cc1)c1ccccc1 | 14.15 |
| COc1ccc(C2=NCC(CSc3nnc(-c4ccc5c(c4)OCO5)o3)S2)cc1 (centres unmarked) | 10.60 |
| CC(=O)Nc1ccc(-c2cnc(N)c(-c3nc4ccc(F)cc4[nH]3)c2)cc1 | 67.81 |
| O=C(COc1nn(-c2ccccc2)c2ncccc12)NCc1ccccc1 | 17.50 |
| CCOc1cc(NCCCN2CCN(C)CC2)c2ncccc2c1.Cl.Cl.Cl | 7.50 |
| CCN(Cc1nc2ccc(C(=O)N3CCN(c4ncccn4)CC3)cc2[nH]1)C1CCCc2cccnc21 (centres unmarked) | 9.60 |
| Cc1nc2c(-c3nc(-c4ccccc4N)n[nH]3)cccn2c1C | 1.40 |
| COc1ccc(-c2csc(NC(=O)c3ccc([N+](=O)[O-])s3)n2)cc1OC | 7.95 |
| Cc1nc(N2CC(C)OC(C)C2)sc1C(=O)Nc1ccc2c(c1)OCO2 (centres unmarked) | 16.10 |
| CCCCn1nnnc1CSc1nc(C)cc(C)c1C#N | 3.00 |
| Br.Nc1nccc(-c2csc(Nc3ccc(Cl)cc3)n2)n1 | 16.40 |
| O=C(CN(Cc1ccccn1)Cc1ccccn1)NCc1ccc(-c2csnn2)cc1.O=C(O)C(F)(F)F | 2.50 |
| COc1ccc(-c2cc(C)no2)cc1S(=O)(=O)Nc1ccc(C)c(C)c1 | 13.20 |
| O=C(Nc1nc(-c2ccccn2)cs1)c1ccc(S(=O)(=O)N2CCCCC2)cc1 | 7.05 |
| N#CN1CC[C@@H](NC(=O)Nc2ccccc2Oc2ccccc2)C1 | 7.40 |
| CC(c1ccc2c(c1)CCCC2)N(C)c1ncc2c(N)nc(N)nc2n1 (centres unmarked) | 12.10 |
| CN(CCOc1ccc(Cl)cc1)Cc1nc(N)nc(N(C)C)n1 | -2.45 |
| Cc1cc(C)n(-c2nc(NC(C)C)nc(NC(C)(C)C)n2)n1 | 7.85 |
| NC(=O)c1ccsc1NC(=O)c1ccc([N+](=O)[O-])s1 | 6.20 |
| CN(C)CCN(C)Cc1ccc(Cl)cc1NS(=O)(=O)c1ccc(Cl)c(Cl)c1 | 8.00 |
| CCCc1cc(C(=O)Nc2ncc(-c3cccc(Br)c3)n2C)n[nH]1 | 8.80 |
| O=C(c1cccc(Nc2ncc(-c3ccc4c(c3)OCO4)cn2)c1)N1CCOCC1 | 12.20 |
| COc1ccc(-c2cnc(C)o2)cc1S(=O)(=O)Nc1ccc(C)cc1C | 12.60 |
| Cn1ccnc1-c1nc(NCc2ccccc2Cl)cc(C2CC2)n1.O=C(O)C(F)(F)F | 8.90 |
| Cc1ccc(-c2csc(NC(=O)C=Cc3ccc(S(=O)(=O)N4CCOCC4)cc3)n2)o1 | 64.27 |
| CCN(CC)c1ccc(S(=O)(=O)N(CC)CC)c2nonc12 | 8.90 |
| O=C(Nc1ccccc1)Nc1nc(-c2ccccn2)cs1 | 1.40 |
